tested on: PC-3 prostate; assay: NCI tumour cell line growth inhibition, 48 h
experimentalReadout: TGI

Previously resolved entries follow.
compound | measurementTarget | experimentalReadout | reportedValue
CN(C)CCOc1ccc(/C(=C(/CCCCCCCCCC[P+](c2ccccc2)(c2ccccc2)c2ccccc2)c2ccccc2)c2ccccc2)cc1 | PC-3 prostate | TGI | 0.184 µM
COc1cc2c(cc1C)NC(=O)/C2=C/c1cccnc1 | PC-3 prostate | TGI | > 64.6 µM
CC12CCCC(C(=O)O)(C1)[C@H](C(C)(C)C(=O)O)CC2 (stereo partly drawn) | PC-3 prostate | TGI | > 100 µM
CC[C@@]1(O)C(=O)OCc2c1cc1n(c2=O)Cc2c-1nc1ccccc1c2/C=N\NC(=O)C[n+]1ccccc1 | PC-3 prostate | TGI | > 100 µM
CCCCCCCCCCCCCCCCP(=O)(O)OCC(N)C(=O)O (stereo not drawn) | PC-3 prostate | TGI | 41.5 µM

I am curious: what TGI value has been reported for CCOC(=O)/C=C/CC(C)(C)COC(C)=O ?
> 10 µM

Give its TGI value. Item: CCOc1cccc(C=Nc2ccccc2SSc2ccccc2N=Cc2cccc(OCC)c2O)c1O
12.8 µM

What measured TGI goes with CCc1[nH]c(=O)nc(N)c1-c1ccc(N2CCCCC2)c([N+](=O)[O-])c1 ?
> 100 µM
